Biological target: UniProtKB P19643
Sequence (P19643 whole entry): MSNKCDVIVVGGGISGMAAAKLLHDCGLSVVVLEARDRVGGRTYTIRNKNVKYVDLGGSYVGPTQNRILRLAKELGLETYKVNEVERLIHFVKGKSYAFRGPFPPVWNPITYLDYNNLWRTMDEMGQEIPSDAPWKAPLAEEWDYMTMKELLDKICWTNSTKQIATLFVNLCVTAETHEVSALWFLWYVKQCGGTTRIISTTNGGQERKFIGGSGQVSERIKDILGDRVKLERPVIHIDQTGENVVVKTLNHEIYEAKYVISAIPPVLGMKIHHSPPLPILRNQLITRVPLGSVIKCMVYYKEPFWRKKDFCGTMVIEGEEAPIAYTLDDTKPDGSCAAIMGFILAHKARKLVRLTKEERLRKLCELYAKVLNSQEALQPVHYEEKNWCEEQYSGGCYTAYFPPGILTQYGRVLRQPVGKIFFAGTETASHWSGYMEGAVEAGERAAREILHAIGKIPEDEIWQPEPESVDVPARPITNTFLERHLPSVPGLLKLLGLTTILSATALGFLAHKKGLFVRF
Assay: In vitro inhibitory concentration against Monoamine oxidase B of rat brain homogenates; value ranges from 77-123
readout: pIC50
// scale note: pIC50 = -log10(conc_M); give the bare number

Reported pIC50, compound C#CCNC1CCc2ccc(OC(=S)N(C)C)cc21 (stereo unspecified) : ____
4.01

* * *

biological target: Amine oxidase [flavin-containing] B (Rattus norvegicus, UniProt P19643); experiment: In vitro inhibitory concentration against Monoamine oxidase B of rat brain homogenates; value ranges from 1.5-5.2; type: tissue-based
readout: IC50 (nM)
Write the answer as a number in nM, unit excluded.

Returns the measured IC50 for the input molecule. Input: "C#CCN(C)CCc1cccc(OC(=O)N(C)C)c1"
2800

* * *

target: Amine oxidase [flavin-containing] B (Rattus norvegicus, UniProt P19643); test: biochemical; format: tissue-based, Brain
readout: pIC50
Kindly note that pIC50 refers to -log10 of the concentration in mol/L and answer with the value alone.

Reported pIC50 for "C#CCN(C)CCc1cccc(O)c1" : what is it?
5.19

* * *

biological target: Butyrylcholinesterase (Equus caballus, UniProt Q9N1N9); assay: In vitro inhibitory concentration against Butyrylcholinesterase of horse serum; value ranges from 0.99-1.91
Sequence (Q9N1N9 whole entry): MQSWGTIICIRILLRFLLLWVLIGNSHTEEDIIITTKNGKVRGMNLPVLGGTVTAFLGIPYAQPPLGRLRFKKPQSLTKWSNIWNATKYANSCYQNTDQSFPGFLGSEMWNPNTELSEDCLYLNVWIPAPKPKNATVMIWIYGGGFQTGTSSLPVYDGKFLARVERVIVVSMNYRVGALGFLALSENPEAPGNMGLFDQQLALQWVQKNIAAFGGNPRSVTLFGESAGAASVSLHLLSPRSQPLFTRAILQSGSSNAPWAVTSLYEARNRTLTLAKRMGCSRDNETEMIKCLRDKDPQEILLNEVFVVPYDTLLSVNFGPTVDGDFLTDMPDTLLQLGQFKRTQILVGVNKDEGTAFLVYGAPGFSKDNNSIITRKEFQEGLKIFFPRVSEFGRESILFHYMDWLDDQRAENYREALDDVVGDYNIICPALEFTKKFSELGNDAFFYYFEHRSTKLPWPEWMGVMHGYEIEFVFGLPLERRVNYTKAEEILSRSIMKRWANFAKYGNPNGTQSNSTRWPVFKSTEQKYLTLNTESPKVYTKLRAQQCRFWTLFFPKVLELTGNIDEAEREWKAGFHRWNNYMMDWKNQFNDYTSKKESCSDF
readout: IC50 (nM)
Just the number in nM, nothing appended.

Query for Butyrylcholinesterase (Equus caballus, UniProt Q9N1N9): what IC50 does the record show for C#CCNC1CCc2ccc(OC(=O)N(C)Cc3ccccc3)cc21 (stereo unspecified) ?
1260

* * *

biological target: Acetylcholinesterase (Homo sapiens); assay: In vitro inhibitory concentration against purified Acetylcholinesterase of human erythrocytes; value ranges from 5.5-45.9
Sequence (P22303 whole entry): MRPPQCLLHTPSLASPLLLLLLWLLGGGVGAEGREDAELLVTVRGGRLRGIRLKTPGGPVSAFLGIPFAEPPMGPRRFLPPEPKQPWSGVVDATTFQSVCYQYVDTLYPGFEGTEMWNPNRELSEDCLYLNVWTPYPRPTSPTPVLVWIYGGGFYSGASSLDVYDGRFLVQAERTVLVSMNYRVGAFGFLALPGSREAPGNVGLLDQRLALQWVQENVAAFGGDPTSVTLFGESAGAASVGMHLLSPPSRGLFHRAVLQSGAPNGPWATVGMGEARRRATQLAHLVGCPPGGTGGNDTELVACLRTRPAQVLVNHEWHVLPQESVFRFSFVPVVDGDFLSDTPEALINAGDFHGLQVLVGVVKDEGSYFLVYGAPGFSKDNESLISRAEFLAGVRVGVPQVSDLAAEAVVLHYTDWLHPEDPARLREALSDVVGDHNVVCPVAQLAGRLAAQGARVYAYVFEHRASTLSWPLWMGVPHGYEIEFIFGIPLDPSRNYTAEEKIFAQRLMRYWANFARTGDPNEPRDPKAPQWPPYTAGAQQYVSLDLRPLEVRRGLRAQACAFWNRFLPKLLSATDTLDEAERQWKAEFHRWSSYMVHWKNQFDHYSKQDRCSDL
readout: IC50
Answer format reminder: number followed by unit.

Which IC50 is listed for C#CCN(C)C1CCc2ccc(OC(=O)N(C)C)cc21 (stereo unspecified) ?
12.9 µM

* * *

target: Acetylcholinesterase (Homo sapiens); test: In vitro inhibitory concentration against purified Acetylcholinesterase of human erythrocytes; value ranges from 0.79-0.93
readout: pIC50
Just the number, please; pIC50 means minus log10 of the concentration in mol/L.

Could you tell me which pIC50 is on file for "C#CCN(C)CCc1cccc(OC(=O)N(C)C)c1" ?
6.07

* * *

biological target: Acetylcholinesterase (Homo sapiens); experiment: In vitro inhibitory concentration against purified Acetylcholinesterase of human erythrocytes; value ranges from 1.28-3.30
readout: pIC50
Value format note: pIC50 is -log10 of concentration (mol/L); just state the number.

Item under review: C#CCNC1CCc2ccc(OC(=O)N(C)Cc3ccccc3)cc21 (stereo unspecified) . Reported pIC50?
5.75

Value source: ChEMBL document CHEMBL1135657
